src = the NIST ThermoML archive (doi:10.1021/acs.jced.5b00077)

Below, each of the compounds is paired with its reported log10 of electrical conductivity value.
CONDITION_CONTEXT: 303.15 K; 101.33 kPa; Liquid; Alternating current cell with electrodes
A difference of one corresponds to tenfold electrical conductivity; all values are log10 with electrical conductivity in S/m.

Answered cases to consult:
COMPOUND: CCC[NH3+].O=C[O-] [propylammonium formate]
log10 of electrical conductivity: -0.36
//
COMPOUND: O=C[O-].[NH3+]CCCO [3-hydroxypropylammonium formate]
log10 of electrical conductivity: -0.77
//
COMPOUND: O=C([O-])C(F)(F)F.[NH3+]CCCO [3-hydroxypropylammonium trifluoroacetate]
log10 of electrical conductivity: -1.22
//
COMPOUND: CC(=O)[O-].CCC[NH3+] [propylammonium acetate]
log10 of electrical conductivity: -1.10

Next, consider the following compound.
[ask] Hello, please tell me recorded log10 of electrical conductivity for this one: CC(=O)[O-].[NH3+]CCCO [3-hydroxypropylammonium acetate]
[reply] -2.00

###

CONDITION_CONTEXT: 308.15 K; 101.33 kPa; Liquid; Alternating current cell with electrodes
Below, each of the molecules is paired with its reported electrical conductivity value.
Your answer is read as S/m, so omit the unit and give the number.

[ask] Hello, please tell me recorded electrical conductivity for this one: CC(=O)[O-].[NH3+]CCCO [3-hydroxypropylammonium acetate]
[reply] 0.02

[ask] Hello, please tell me recorded electrical conductivity for this one: CCC[NH3+].O=C[O-] [propylammonium formate]
[reply] 0.51

[ask] Hello, please tell me recorded electrical conductivity for this one: CC(=O)[O-].CCC[NH3+] [propylammonium acetate]
[reply] 0.1
